Quick list: inhibition at 5 µM per entry.
# Tested on: VIPR2 (Homo sapiens, UniProt P41587)
# Assay method text: Inhibition of VIP-induced cAMP elevation (% Activity cAMP)
# Format: cell-based
# Design: expressed in transfected cells; host or cells: HEK293 cells transfected with VIPR2 in pCDNA3.1 (as described)
# Setup conditions: 5 μM, Batch 3
Readout label: inhibition at 5 µM (%)

[[record]]
molecule = "CNC(=O)c1ccc(S(=O)(=O)NC[C@@H](O)C[C@@H](Cc2ccccc2)C(=O)N[C@H]2c3ccccc3C[C@H]2O)cc1"
number = 69.5

[[record]]
molecule = "CNc1ccc(S(=O)(=O)NC[C@@H](O)C[C@@H](Cc2ccccc2)C(=O)N[C@H]2c3ccccc3C[C@H]2O)cc1"
number = -7.3

[[record]]
molecule = "O=C(N[C@H]1c2ccccc2C[C@H]1O)[C@H](Cc1ccccc1)C[C@H](O)CNS(=O)(=O)c1ccc([N+](=O)[O-])cc1 [Compound A27, reference compound]"
number = 97.8


---

The compounds listed here are annotated with their inhibition at 0.5 µM.
# Tested on: VIPR2 (Homo sapiens)
# Sequence (P41587 24-438): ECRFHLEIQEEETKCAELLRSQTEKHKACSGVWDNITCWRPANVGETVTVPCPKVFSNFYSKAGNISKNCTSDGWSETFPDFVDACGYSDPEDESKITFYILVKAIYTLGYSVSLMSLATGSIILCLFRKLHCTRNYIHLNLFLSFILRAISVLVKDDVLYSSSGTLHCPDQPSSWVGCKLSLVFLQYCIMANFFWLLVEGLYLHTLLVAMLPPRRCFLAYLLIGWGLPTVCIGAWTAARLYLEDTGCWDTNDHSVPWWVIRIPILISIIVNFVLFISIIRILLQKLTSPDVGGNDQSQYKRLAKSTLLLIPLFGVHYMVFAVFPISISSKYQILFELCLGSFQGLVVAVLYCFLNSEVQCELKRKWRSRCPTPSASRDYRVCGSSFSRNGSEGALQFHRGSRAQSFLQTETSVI
# Assay method text: Inhibition of VIP-induced cAMP elevation (% Activity cAMP)
# Assay type: cell-based
# Design: expressed in transfected cells; host or cells: HEK293 cells transfected with VIPR2 in pCDNA3.1 (as described)
# Setup conditions: 0.5 μM, Batch 1
Readout label: inhibition at 0.5 µM (%)

[[record]]
compound = "CS(=O)(=O)NC[C@@H](O)C[C@@H](Cc1ccccc1)C(=O)N[C@H]1c2ccccc2C[C@H]1O [Compound A5]"
units_of_measure = "%"
number = 21.4

[[record]]
compound = "O=C(CCCCl)NC[C@@H](O)C[C@@H](Cc1ccccc1)C(=O)N[C@H]1c2ccccc2C[C@H]1O [Compound A22]"
units_of_measure = "%"
number = 16.4

[[record]]
compound = "O=C(NC[C@@H](O)C[C@@H](Cc1ccccc1)C(=O)N[C@H]1c2ccccc2C[C@H]1O)c1ccco1 [Compound A2]"
units_of_measure = "%"
number = 20.8

[[record]]
compound = "O=C(NC[C@@H](O)C[C@@H](Cc1ccccc1)C(=O)N[C@H]1c2ccccc2C[C@H]1O)C1CC1 [Compound A1]"
units_of_measure = "%"
number = 21

[[record]]
compound = "CC(C)(C)c1ccc(C(=O)NC[C@@H](O)C[C@@H](Cc2ccccc2)C(=O)N[C@H]2c3ccccc3C[C@H]2O)cc1 [Compound A26]"
units_of_measure = "%"
number = 10.7

[[record]]
compound = "CC(=O)c1ccc(S(=O)(=O)NC[C@@H](O)C[C@@H](Cc2ccccc2)C(=O)N[C@H]2c3ccccc3C[C@H]2O)cc1 [K]"
units_of_measure = "%"
number = 38.6

[[record]]
compound = "O=C(NC[C@@H](O)C[C@@H](Cc1ccccc1)C(=O)N[C@H]1c2ccccc2C[C@H]1O)C1CCCCCC1 [Compound A8]"
units_of_measure = "%"
number = 18.4

